measurementNotes: Solubility in various media (HPLC)
Type: physicochemical
conditionLabel: ethanol, organic solvent or mixture, thermodynamic from solid; EtOH; Figure 2A
reportedProperty: solubility at 1 day

Given item OCCOCCN1CCN(C2=Nc3ccccc3Sc3ccccc32)CC1 , the value recorded as its solubility at 1 day is > 50 mg/mL

Hey, just so you know, these numbers are from paper PMC7910999.
